Listing of recorded AUC(0-inf) by entry.
test: AUC(0 to infinity) in cynomolgus monkey at 0.3 to 1 mg/kg, po; assay type: ADME, organism-based, Macaca fascicularis; set-up: route po; details: in vivo, dose 0.3-1 mg/kg
Reply numerically in ng·h/mL, unit not repeated.

Here is how some molecules turned out for AUC(0-inf).
CCc1sc(N(CC2CC2)[C@H](C)c2ccc(-c3cc(C)ccc3-c3nc(=O)o[nH]3)cc2)nc1C(=O)NS(=O)(=O)C1CC1: 10300
Cc1ccc(-c2nc(=O)o[nH]2)c(-c2ccc([C@@H](C)N(CC3CC3)c3nc(C(=O)NS(=O)(=O)C4CC4)c(C4CC4)s3)cc2)c1: 53700
Cc1ccc(-c2nc(=O)o[nH]2)c(-c2ccc([C@@H](C)N(CC3CC3)c3nc(C(=O)NS(=O)(=O)C4CC4)c(C(C)C)s3)cc2)c1: 33800

Please find the next molecule below.
Problem: AUC(0-inf) for Cc1ccc(-c2nc(=O)o[nH]2)c(-c2ccc([C@@H](C)N(CC3CC3)c3nc(C(=O)NS(=O)(=O)C4CC4)c(C4CCC4)s3)cc2)c1 ?
Solution: 55800

###

biological target: Chemerin-like receptor 1 (Homo sapiens); assay: Inhibition of human ChemR23 expressed in CAL-1 cells assessed as reduction in chemerin-induced calcium signaling
Sequence (Q99788 whole entry): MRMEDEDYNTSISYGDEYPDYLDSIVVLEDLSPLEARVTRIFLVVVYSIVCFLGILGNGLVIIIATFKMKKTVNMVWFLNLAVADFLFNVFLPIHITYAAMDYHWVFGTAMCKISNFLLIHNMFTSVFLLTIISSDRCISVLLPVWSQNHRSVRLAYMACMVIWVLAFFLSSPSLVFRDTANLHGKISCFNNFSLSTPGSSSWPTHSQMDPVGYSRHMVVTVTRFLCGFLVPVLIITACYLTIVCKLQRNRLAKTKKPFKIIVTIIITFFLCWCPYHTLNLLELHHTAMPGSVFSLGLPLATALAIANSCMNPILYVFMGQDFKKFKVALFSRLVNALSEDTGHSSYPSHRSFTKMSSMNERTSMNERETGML
result_type: IC50
Quick note: number first, unit second.

Here is how some compounds turned out for IC50.
C[C@H](c1ccc(-c2cc(Cl)ccc2C(=O)NCCOCCOCCOCCOCCOCCOCCN=[N+]=[N-])cc1)N(CC1CC1)c1nc(C(=O)NS(=O)(=O)C2CC2)c(C2CC2)s1: 12 nM
CCNC(=O)CCC(=O)N1Cc2ccccc2-c2nnn(CCOCCOCCOCCOCCOCCOCCNC(=O)c3ccc(Cl)cc3-c3ccc([C@@H](C)N(CC4CC4)c4nc(C(=O)NS(=O)(=O)C5CC5)c(C5CC5)s4)cc3)c2-c2ccccc21: 9.1 nM
C[C@H](c1ccc(-c2cc(Cl)ccc2C(=O)NCCOCCOCCOCCOCCOCCOCCOCCOCCOCCOCCOCCOCCOCCOCCOCCOCCOCCOCCOCOCCOCCOCCOCCN=[N+]=[N-])cc1)N(CC1CC1)c1nc(C(=O)NS(=O)(=O)C2CC2)c(C2CC2)s1: 100 nM

Problem: Find IC50 (Chemerin-like receptor 1 (Homo sapiens)) for the entry C[C@H](c1ccc(-c2cc(Cl)ccc2C(=O)NCCOCCOCCOCCOCCOCCOCCn2nnc3c2-c2ccccc2N(C(=O)CCNC(=O)CCOCCOCCOCCOCCNC(=O)CCCC[C@@H]2SC[C@@H]4NC(=O)N[C@@H]42)Cc2ccccc2-3)cc1)N(CC1CC1)c1nc(C(=O)NS(=O)(=O)C2CC2)c(C2CC2)s1
Solution: 14 nM

###

Listing of recorded half-life by entry.
assay: Half life in cynomolgus monkey at 1 mg/kg, po; assay type: ADME, organism-based, Macaca fascicularis; settings: in vivo
Quick note: number first, unit second.

CNC(=O)c1ccc(C)cc1-c1ccc([C@@H](C)N(CC2CC2)c2nc(C(=O)NS(=O)(=O)C3CC3)c(C3CC3)s2)cc1: 3 h
CONC(=O)c1ccc(C)cc1-c1ccc([C@@H](C)N(CC2CC2)c2nc(C(=O)NS(=O)(=O)C3CC3)c(C3CC3)s2)cc1: 2.9 h

Problem: half-life for Cc1ccc(-c2nc(=O)s[nH]2)c(-c2ccc([C@@H](C)N(CC3CC3)c3nc(C(=O)NS(=O)(=O)C4CC4)c(C4CC4)s3)cc2)c1 ?
Solution: 3.2 h
